src = PubChem BioAssay (NCI)

assay: NCI Yeast Anticancer Drug Screen. Data for the mlh1 rad18 strain (AID 175); conditions: S. cerevisiae mlh1 rad18 strain growth inhibition; at 50.0 µM; hits give high values
Compounds without any hit were thinned out: in the full panel of roughly 79,000, 15% have a hit.
In this section, each of the molecules is paired with its reported growth inhibition.
Give the value in % but do not write % after it.

# annotated cases, reported growth inhibition shown
query: Answer with the recorded growth inhibition of CCC1CC2CCC(O2)C(C)C(=O)OC(C)CC2CCC(O2)C(C)C(=O)OC(CC)CC2CCC(O2)C(C)C(=O)OC(C)CC2CCC(O2)C(C)C(=O)O1 (stereo unspecified) only.
result: 73.2

query: Answer with the recorded growth inhibition of `O=C1C(Cl)=C(Cl)C(=O)N1c1ccc(F)cc1` only.
result: 48.1

query: Answer with the recorded growth inhibition of CN(C)CC(Cl)CCl (stereo unspecified) only.
result: 49.5

query: Answer with the recorded growth inhibition of `c1ccc2c(c1)CCc1c-2[nH]c2ccccc12` only.
result: 83.2

query: Answer with the recorded growth inhibition of `CCC[CH2][Sn]1([CH2]CCC)[O]C(=O)c2cccc(C)c2[O]1` only.
result: 98.2

---
query: Answer with the recorded growth inhibition of `CCC[CH2][Sn]1([CH2]CCC)[O]CC(c2ccccn2)C[O]1` only.
result: 87.4

query: Answer with the recorded growth inhibition of `c1ccc([Te][Te]c2ccccc2)cc1` only.
result: 86

query: Answer with the recorded growth inhibition of NC1=NCC(c2ccc(Cl)cc2)O1 (stereo unspecified) only.
result: 50.4

query: Answer with the recorded growth inhibition of `O=C(O)Cc1ccc2c(c1)OCO2.[Ag]` only.
result: 94.4

query: Answer with the recorded growth inhibition of `CC[CH2][Sn]([F])([F])[CH2]CC` only.
result: 86.5

query: Answer with the recorded growth inhibition of `Cc1ccccc1C[As](C)(=O)O` only.
result: 0.35
